System Tested: Sulfonylurea receptor 1, Kir6.2 (Homo sapiens) (UniProt Q14654+Q09428)
Experiment: Antiarrhythmic effect in hSUR1/hKir6.2 (pancreatic KATP channel) transfected in CHO cells at a dose of 1 uM
Type: functional, cell-based
Condition Info: at 1 µM
So basically: inhibition at 20% or higher? That is True. Lower than 20%? That is False.

>>> df
                                   compound  discrete_label
0  CN/C(S)=N/S(=O)(=O)c1cc(CCNC(=O)c2cc(Cl)ccc2OC)ccc1OCCOCCOC            True
1  CN/C(S)=N/S(=O)(=O)c1cc(CCNC(=O)c2cc(Cl)ccc2OC)ccc1C(C)C            True
2  CN/C(S)=N/S(=O)(=O)c1cc(CCNC(=O)c2cc(Cl)ccc2OC)ccc1C            True
3  CNC(=O)NS(=O)(=O)c1cc(CCNC(=O)c2cc(Cl)ccc2OC)c(OC)cc1OC           False
4  CN/C(S)=N/S(=O)(=O)c1cc2c(cc1OC)OCCC2CNC(=O)c1cc(Cl)ccc1OC (single isomer, unassigned; (+))           False
5  CN/C(S)=N/S(=O)(=O)c1cc(CCNC(=O)c2cc(Cl)ccc2OC)ccc1F           False
6  CN/C(S)=N/S(=O)(=O)c1cc(CCNC(=O)c2cc(Cl)ccc2OC)ccc1OC(C)C            True
7  COc1ccc(Cl)cc1C(=O)NCCc1ccc(OC)c(S(=O)(=O)NC(=O)NC2CCCCC2)c1            True

Lookup: Textbook exercise: given the entry `CN/C(S)=N/S(=O)(=O)c1cc(CCNC(=O)c2cc(Cl)ccc2OC)ccc1I` , state whether its inhibition is greater than or equal to 20%.
Found: False

Lookup: Textbook exercise: given the entry CNC(=O)NS(=O)(=O)c1cc2c(cc1OC)OCCC2CNC(=O)c1cc(Cl)ccc1OC (single isomer, unassigned; (-)) , state whether its inhibition is greater than or equal to 20%.
Found: False

Lookup: Textbook exercise: given the entry `CN/C(S)=N/S(=O)(=O)c1cc(CCNC(=O)c2cc(Cl)ccc2OC)ccc1N1CCOCC1` , state whether its inhibition is greater than or equal to 20%.
Found: True

Lookup: Textbook exercise: given the entry `CN/C(S)=N/S(=O)(=O)c1cc(CCNC(=O)c2cc(Cl)ccc2OC)ccc1Br` , state whether its inhibition is greater than or equal to 20%.
Found: False

Lookup: Textbook exercise: given the entry `CN/C(S)=N/S(=O)(=O)c1cc(CCNC(=O)c2cc(Cl)ccc2OC)ccc1-c1cccnc1` , state whether its inhibition is greater than or equal to 20%.
Found: False

Lookup: Textbook exercise: given the entry `CN/C(S)=N/S(=O)(=O)c1cc(CCNC(=O)c2cc(Cl)ccc2OC)ccc1OC(F)(F)F` , state whether its inhibition is greater than or equal to 20%.
Found: False

Lookup: Textbook exercise: given the entry CN/C(S)=N/S(=O)(=O)c1cc2c(cc1OC)OCCC2CNC(=O)c1cc(Cl)ccc1OC (single isomer, unassigned; (-)) , state whether its inhibition is greater than or equal to 20%.
Found: True

Lookup: Textbook exercise: given the entry CNC(=O)NS(=O)(=O)c1cc2c(cc1OC)OCCC2CNC(=O)c1cc(Cl)ccc1OC (single isomer, unassigned; (+)) , state whether its inhibition is greater than or equal to 20%.
Found: False
